All values here come from patent US20240067633A1.

Some molecules, each annotated with its measured pEC50.
Target: hKHKa (Homo sapiens (Human))
Sequence (P50053 other isoform, or with tags, fused parts or gaps): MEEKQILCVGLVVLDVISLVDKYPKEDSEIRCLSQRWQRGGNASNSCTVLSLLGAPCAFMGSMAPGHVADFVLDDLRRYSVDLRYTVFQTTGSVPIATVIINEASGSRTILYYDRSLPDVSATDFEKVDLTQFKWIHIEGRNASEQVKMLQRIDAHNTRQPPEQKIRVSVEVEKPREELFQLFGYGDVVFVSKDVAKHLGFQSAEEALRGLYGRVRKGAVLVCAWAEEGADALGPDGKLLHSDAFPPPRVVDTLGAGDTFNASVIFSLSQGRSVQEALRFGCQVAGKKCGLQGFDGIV
Assay: Experiment of inhibitory activity against KHK in vitro (ADP-glo), hKHKa
pEC50: −log10 of the molar value.
MEASURE NAME: pEC50

{"columns": ["MOLECULE", "VALUE REPORTED"],
 "data": [
  ["C[C@H]1CCN1c1nc(N2C[C@H]3C[C@@H](C2)[C@@H]3CC(=O)O)c2c(n1)C(F)(F)CCC2 (single isomer, unassigned; isomer 2) [Isomer 2 of compound 3]", 7.29],
  ["C[C@H]1CCN1c1nc(N2CC(CC(=O)O)C2)c2c(c1C#N)C(F)(F)CC2 [Compound 7]", 7.45],
  ["C[C@H]1CCN1c1nc(N2CCC(CC(=O)O)C2)c2c(c1C#N)C(F)(F)CC2 (single isomer, unassigned) [Isomer 1 of compound 8]", 7.22]
]}

====

Molecular target: rKHKc (Rattus norvegicus (Rat))
Sequence (Q02974 whole entry): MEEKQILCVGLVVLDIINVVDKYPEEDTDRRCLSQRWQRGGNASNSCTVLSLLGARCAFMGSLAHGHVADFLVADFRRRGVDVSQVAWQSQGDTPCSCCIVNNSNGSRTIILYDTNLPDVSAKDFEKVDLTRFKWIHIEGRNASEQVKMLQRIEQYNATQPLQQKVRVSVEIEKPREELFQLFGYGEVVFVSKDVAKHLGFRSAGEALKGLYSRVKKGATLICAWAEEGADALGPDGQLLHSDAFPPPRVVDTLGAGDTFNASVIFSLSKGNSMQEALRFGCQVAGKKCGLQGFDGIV
Assay: Experiment of inhibitory activity against KHK in vitro (ADP-glo), rKHKc
pEC50: −log10 of the molar value.

{"columns": ["MOLECULE", "pEC50"],
 "data": [
  ["C[C@H]1CCN1c1nc(N2C[C@H]3C[C@@H](C2)[C@@H]3CC(=O)O)c2c(n1)C(F)(F)CCC2 (single isomer, unassigned; isomer 2) [Isomer 2 of compound 3]", 6.84]
]}

====

Biological target: hKHK-C (Homo sapiens (Human))
Sequence (P50053 whole entry): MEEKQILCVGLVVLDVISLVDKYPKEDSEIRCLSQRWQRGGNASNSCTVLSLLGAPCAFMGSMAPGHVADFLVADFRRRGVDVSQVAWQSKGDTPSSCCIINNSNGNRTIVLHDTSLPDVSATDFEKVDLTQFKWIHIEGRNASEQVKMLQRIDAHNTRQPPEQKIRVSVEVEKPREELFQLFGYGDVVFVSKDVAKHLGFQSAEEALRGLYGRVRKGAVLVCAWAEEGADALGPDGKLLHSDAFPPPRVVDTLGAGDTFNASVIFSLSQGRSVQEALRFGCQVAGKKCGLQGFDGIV
Experiment: Experiment of inhibitory activity against KHK in vitro (ADP-glo), hKHKc
Settings: purified hKHK-C, 50 mM fructose, 0.2 mM ATP
Procedure: With the involvement of ATP, fructokinase phosphorylates fructose to produce fructose-1-phosphate and ADP. In this experiment, the effect of the compound on the activity of fructokinase was determined by measuring the amount of ADP produced in the process. Test compound stocks were prepared in DMSO. […] The spontaneous luminescence intensity was measured using an Envision microplate reader. The inhibition rate of the compound against […] was calculated using the following formula, […]
Note to self: EC50 under 50 nM means t, ties and anything higher get f.

{"columns": ["COMPOUND", "DISCRETE LABEL"],
 "data": [
  ["C[C@H]1CCN1c1nc(N2CC(CC(=O)O)C2)c2c(c1C#N)C(F)(F)CC2 [Compound 7]", "t"],
  ["O=C(O)C[C@H]1[C@@H]2C[C@H]1CN(c1nc(N3CC[C@H]3C(F)F)nc3c1CCC3(F)F)C2 (single isomer, unassigned; isomer 2) [Isomer 2 of compound 19]", "f"],
  ["[2H]C([2H])([2H])[C@H]1CCN1c1nc(N2CC(CC(=O)O)C2)c2c(c1C#N)C(F)(F)CC2 [Compound 18]", "f"],
  ["C[C@H]1CCN1c1nc(N2C[C@H]3C[C@@H](C2)[C@@H]3CC(=O)O)c2c(n1)C(F)(F)CC2 (single isomer, unassigned; isomer 2) [Isomer 2 of compound 4]", "t"],
  ["C[C@H]1CCN1c1nc(N2CCC(CC(=O)O)C2)c2c(c1C#N)C(F)(F)CC2 (single isomer, unassigned) [Isomer 1 of compound 8]", "f"],
  ["[2H]C([2H])([2H])[C@H]1CCN1c1nc(N2C[C@H]3C[C@@H](C2)C3CC(=O)O)c2c(n1)C(F)(F)CC2 (stereo partly shown) [Compound 16]", "t"],
  ["C[C@H]1CCN1c1nc(N2C[C@H]3C[C@@H](C2)[C@@H]3CC(=O)O)c2c(n1)C(F)(F)CCC2 (single isomer, unassigned; isomer 2) [Isomer 2 of compound 3]", "t"]
]}
